The measurements presented in this section are drawn from patent US5968965A.

target: human FPTase (Homo sapiens, UniProt P49354+P49356); experiment: In vitro inhibition of Ras farnesyl transferase (human FPTase); settings: [3H]-FPP incorporation, 100 nM Ras-CVIM, 30 min; read-out: IC50 against human FPTase
Structures can show the parent of a compound that is named as a salt.
Measured attribute: IC50

In: GET /values?readout=IC50&system=human FPTase (Homo sapiens, UniProt P49354+P49356)&item= N#Cc1ccc(Cn2cncc2CCC(=O)Nc2cccc(Cl)c2)cc1 [Example 1, hydrochloride]
Out: < 10 µM
